- Subject of test: 5'-nucleotidase (Mus musculus, UniProt Q61503)
- Sequence (Q61503 whole entry): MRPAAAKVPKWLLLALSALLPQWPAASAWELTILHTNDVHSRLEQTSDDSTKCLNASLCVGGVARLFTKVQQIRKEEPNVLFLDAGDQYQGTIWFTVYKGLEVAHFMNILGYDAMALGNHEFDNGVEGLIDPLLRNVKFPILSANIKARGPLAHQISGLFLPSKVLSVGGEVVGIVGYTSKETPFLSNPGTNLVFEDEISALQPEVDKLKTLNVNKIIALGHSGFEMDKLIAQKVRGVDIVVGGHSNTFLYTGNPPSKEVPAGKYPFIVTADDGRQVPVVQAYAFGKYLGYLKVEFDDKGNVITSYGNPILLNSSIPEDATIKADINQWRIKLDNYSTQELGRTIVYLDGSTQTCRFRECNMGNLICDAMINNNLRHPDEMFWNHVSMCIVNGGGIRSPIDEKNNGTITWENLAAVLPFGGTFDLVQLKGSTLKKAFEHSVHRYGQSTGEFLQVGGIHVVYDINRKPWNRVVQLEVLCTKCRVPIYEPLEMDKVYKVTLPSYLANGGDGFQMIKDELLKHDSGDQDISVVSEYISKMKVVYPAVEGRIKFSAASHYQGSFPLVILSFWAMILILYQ
- Assay method text: Inhibition of CD73 in mouse CD8-positive T cells using AMP as substrate preincubated for 60 mins followed by substrate addition and measured after 2.5 hrs by PiColorLock gold reagent based colorimetric assay
Value kind: IC50 (nM)

C[C@H](Nc1cc(Cl)nc2c1cnn2[C@@H]1O[C@H](COP(=O)(O)CP(=O)(O)O)[C@@H](O)[C@H]1O)c1ccccc1F = 0.66

(a) C[C@H](Nc1nc(Cl)nc2c1cnn2[C@@H]1O[C@H](COP(=O)(O)CP(=O)(O)O)[C@@H](O)[C@H]1O)c1ccccc1
(b) C[C@H](Nc1cc(Cl)nc2c1cnn2[C@@H]1O[C@H](COP(=O)(O)CP(=O)(O)O)[C@@H](O)[C@H]1O)c1ccc(F)cc1
Exercise: Field: entry with larger IC50 (options a / b ). Answer format: the label of the selected item.
Key: b
(b: 0.83 nM, a: 0.16 nM)

---

- Assay method text: Volume of distribution at steady state in monkey at 0.5 mg/kg, iv
- Type: ADME, organism-based, Macaca mulatta
- Settings: rhesus monkey, in vivo, read-out: Vdss
Value kind: Vd (L/kg)

C[C@H](Nc1cc(Cl)nc2c1cnn2[C@@H]1O[C@H](COP(=O)(O)CP(=O)(O)O)[C@@H](O)[C@H]1O)c1ccccc1F = 0.099
C[C@H](Nc1cc(Cl)nc2c1cnn2[C@@H]1O[C@H](COP(=O)(O)CP(=O)(O)O)[C@@H](O)[C@H]1O)c1ccc(F)cc1 = 0.078
C[C@H](Nc1nc(Cl)nc2c1cnn2[C@@H]1O[C@H](COP(=O)(O)CP(=O)(O)O)[C@@H](O)[C@H]1O)c1ccccc1 = 0.096

---

- Subject of test: 5'-nucleotidase (Homo sapiens)
- Sequence (P21589 whole entry): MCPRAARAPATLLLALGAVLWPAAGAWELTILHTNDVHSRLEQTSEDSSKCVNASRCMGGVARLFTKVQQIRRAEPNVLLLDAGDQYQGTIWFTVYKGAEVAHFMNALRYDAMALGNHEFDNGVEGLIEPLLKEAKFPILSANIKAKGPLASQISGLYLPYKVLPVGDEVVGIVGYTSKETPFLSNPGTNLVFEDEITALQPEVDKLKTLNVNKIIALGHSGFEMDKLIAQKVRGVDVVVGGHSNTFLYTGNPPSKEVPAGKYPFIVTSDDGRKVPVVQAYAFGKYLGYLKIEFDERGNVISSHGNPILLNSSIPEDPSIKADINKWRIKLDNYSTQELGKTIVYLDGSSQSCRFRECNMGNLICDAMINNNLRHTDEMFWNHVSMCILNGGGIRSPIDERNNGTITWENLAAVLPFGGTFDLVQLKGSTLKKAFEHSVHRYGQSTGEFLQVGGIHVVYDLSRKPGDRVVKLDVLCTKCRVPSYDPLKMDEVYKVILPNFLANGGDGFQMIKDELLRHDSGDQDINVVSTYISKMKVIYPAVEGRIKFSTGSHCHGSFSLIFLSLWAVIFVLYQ
- Assay method text: Inhibition of human CD73 expressed in CHO cells using AMP as substrate preincubated for 60 mins followed by substrate addition and measured after 60 mins by PiColorLock gold reagent based colorimetric assay
- Type: cell-based
pIC50: −log10 of the molar value.
Value kind: pIC50

(1) C[C@H](Nc1nc(Cl)nc2c1cnn2[C@@H]1O[C@H](COP(=O)(O)CP(=O)(O)O)[C@@H](O)[C@H]1O)c1ccccc1
(2) C[C@H](Nc1cc(Cl)nc2c1cnn2[C@@H]1O[C@H](COP(=O)(O)CP(=O)(O)O)[C@@H](O)[C@H]1O)c1ccc(F)cc1
Exercise: Field: entry with larger pIC50 (options 1 / 2 ). Answer format: the label of the selected item.
Key: 1
(1: 10.35, 2: 9.94)

---

- Assay method text: Clearance in human at 16 mg, iv administered as single infusion for 30 to 60 mins
- Assay type: ADME, organism-based
- Settings: in vivo, time 30-60 min
Value kind: clearance (mL/min)
Supply the numeric figure in mL/min, leaving out any unit text.

Exercise: # input compound: C[C@H](Nc1cc(Cl)nc2c1cnn2[C@@H]1O[C@H](COP(=O)(O)CP(=O)(O)O)[C@@H](O)[C@H]1O)c1ccccc1F ; wanted: its clearance
Key: 1.12

---

- Assay method text: Clearance in dog at 0.5 mg/kg, iv
- Type: ADME, organism-based, Canis lupus familiaris
- Settings: in vivo
Value kind: clearance (mL/min/kg)

C[C@H](Nc1cc(Cl)nc2c1cnn2[C@@H]1O[C@H](COP(=O)(O)CP(=O)(O)O)[C@@H](O)[C@H]1O)c1ccccc1F = 0.833

(A) C[C@H](Nc1nc(Cl)nc2c1cnn2[C@@H]1O[C@H](COP(=O)(O)CP(=O)(O)O)[C@@H](O)[C@H]1O)c1ccccc1
(B) C[C@H](Nc1cc(Cl)nc2c1cnn2[C@@H]1O[C@H](COP(=O)(O)CP(=O)(O)O)[C@@H](O)[C@H]1O)c1ccc(F)cc1
Exercise: Field: entry with larger clearance (options A / B ). Answer format: the label of the selected item.
Key: A

---

- Subject of test: 5'-nucleotidase (Homo sapiens)
- Assay method text: Inhibition of CD73 in human PBMC using AMP as substrate preincubated for 60 mins followed by substrate addition and measured after 2.5 hrs by PiColorLock gold reagent based colorimetric assay
- Assay type: tissue-based
Value kind: IC50 (nM)

(a) C[C@H](Nc1nc(Cl)nc2c1cnn2[C@@H]1O[C@H](COP(=O)(O)CP(=O)(O)O)[C@@H](O)[C@H]1O)c1ccccc1
(b) C[C@H](Nc1cc(Cl)nc2c1cnn2[C@@H]1O[C@H](COP(=O)(O)CP(=O)(O)O)[C@@H](O)[C@H]1O)c1ccc(F)cc1
Exercise: Field: entry with larger IC50 (options a / b ). Answer format: the label of the selected item.
Key: b
(b: 0.021 nM, a: 0.0085 nM)

---

- Assay method text: Fraction unbound in dog plasma
- Type: ADME, cell-free, Canis lupus familiaris
Value kind: fraction unbound

C[C@H](Nc1cc(Cl)nc2c1cnn2[C@@H]1O[C@H](COP(=O)(O)CP(=O)(O)O)[C@@H](O)[C@H]1O)c1ccccc1F = 0.083

(P) C[C@H](Nc1cc(Cl)nc2c1cnn2[C@@H]1O[C@H](COP(=O)(O)CP(=O)(O)O)[C@@H](O)[C@H]1O)c1ccc(F)cc1
(Q) C[C@H](Nc1nc(Cl)nc2c1cnn2[C@@H]1O[C@H](COP(=O)(O)CP(=O)(O)O)[C@@H](O)[C@H]1O)c1ccccc1
Exercise: Field: entry with larger fraction unbound (options P / Q ). Answer format: the label of the selected item.
Key: Q

---

- Assay method text: Clearance in monkey at 0.5 mg/kg, iv
- Type: ADME, organism-based, Macaca mulatta
- Settings: rhesus monkey, in vivo
Value kind: clearance (mL/h/kg)

C[C@H](Nc1cc(Cl)nc2c1cnn2[C@@H]1O[C@H](COP(=O)(O)CP(=O)(O)O)[C@@H](O)[C@H]1O)c1ccccc1F = 2.5
C[C@H](Nc1cc(Cl)nc2c1cnn2[C@@H]1O[C@H](COP(=O)(O)CP(=O)(O)O)[C@@H](O)[C@H]1O)c1ccc(F)cc1 = 1.7
C[C@H](Nc1nc(Cl)nc2c1cnn2[C@@H]1O[C@H](COP(=O)(O)CP(=O)(O)O)[C@@H](O)[C@H]1O)c1ccccc1 = 2.4

---

Form field: pIC50 (one value per entry).
- Subject of test: Ectonucleoside triphosphate diphosphohydrolase 8 (Homo sapiens)
- Sequence (Q5MY95 whole entry): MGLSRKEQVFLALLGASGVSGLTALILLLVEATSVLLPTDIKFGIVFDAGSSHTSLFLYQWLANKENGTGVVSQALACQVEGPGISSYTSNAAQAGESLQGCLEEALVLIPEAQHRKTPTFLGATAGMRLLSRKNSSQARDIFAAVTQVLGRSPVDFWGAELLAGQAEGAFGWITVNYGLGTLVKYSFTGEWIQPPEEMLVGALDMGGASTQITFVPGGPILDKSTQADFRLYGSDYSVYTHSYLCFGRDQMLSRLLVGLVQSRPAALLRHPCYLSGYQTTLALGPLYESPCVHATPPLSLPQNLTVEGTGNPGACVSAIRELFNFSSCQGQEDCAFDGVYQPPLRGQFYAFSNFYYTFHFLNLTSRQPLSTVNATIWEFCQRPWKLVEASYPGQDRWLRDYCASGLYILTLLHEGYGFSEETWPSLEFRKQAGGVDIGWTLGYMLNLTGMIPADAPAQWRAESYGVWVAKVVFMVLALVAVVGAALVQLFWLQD
- Assay method text: Inhibition of NTPDase 8 (unknown origin) expressed in CHO cells using ATP as substrate preincubated for 1 hr followed by substrate addition and measured after 50 mins by PiColorLock gold reagent based colorimetric assay
- Assay type: cell-based
pIC50: −log10 of the molar value.

// known answers, use as guide
C[C@H](Nc1cc(Cl)nc2c1cnn2[C@@H]1O[C@H](COP(=O)(O)CP(=O)(O)O)[C@@H](O)[C@H]1O)c1ccc(F)cc1 = < 5.00
C[C@H](Nc1cc(Cl)nc2c1cnn2[C@@H]1O[C@H](COP(=O)(O)CP(=O)(O)O)[C@@H](O)[C@H]1O)c1ccccc1F = < 5.00

Exercise: # input compound: C[C@H](Nc1nc(Cl)nc2c1cnn2[C@@H]1O[C@H](COP(=O)(O)CP(=O)(O)O)[C@@H](O)[C@H]1O)c1ccccc1 ; wanted: its pIC50
Key: < 5.00

---

- Assay method text: Half life in Sprague-Dawley rat at 0.5 mg/kg, iv
- Type: ADME, organism-based
- Settings: in vivo
Value kind: half-life (h)

C[C@H](Nc1cc(Cl)nc2c1cnn2[C@@H]1O[C@H](COP(=O)(O)CP(=O)(O)O)[C@@H](O)[C@H]1O)c1ccc(F)cc1 = 9.6

(A) C[C@H](Nc1nc(Cl)nc2c1cnn2[C@@H]1O[C@H](COP(=O)(O)CP(=O)(O)O)[C@@H](O)[C@H]1O)c1ccccc1
(B) C[C@H](Nc1cc(Cl)nc2c1cnn2[C@@H]1O[C@H](COP(=O)(O)CP(=O)(O)O)[C@@H](O)[C@H]1O)c1ccccc1F
Exercise: Problem: Given the entries A and B , determine which has the lower reported half-life. Answer format: the label of the selected item.
Key: A

---

- Assay method text: Half life in dog at 0.5 mg/kg, iv
- Assay type: ADME, organism-based, Canis lupus familiaris
- Settings: in vivo
Value kind: half-life (h)

C[C@H](Nc1cc(Cl)nc2c1cnn2[C@@H]1O[C@H](COP(=O)(O)CP(=O)(O)O)[C@@H](O)[C@H]1O)c1ccc(F)cc1 = 15

(a) C[C@H](Nc1nc(Cl)nc2c1cnn2[C@@H]1O[C@H](COP(=O)(O)CP(=O)(O)O)[C@@H](O)[C@H]1O)c1ccccc1
(b) C[C@H](Nc1cc(Cl)nc2c1cnn2[C@@H]1O[C@H](COP(=O)(O)CP(=O)(O)O)[C@@H](O)[C@H]1O)c1ccccc1F
Exercise: Field: entry with larger half-life (options a / b ). Answer format: the label of the selected item.
Key: b

---

- Subject of test: Ectonucleoside triphosphate diphosphohydrolase 1 (Homo sapiens)
- Sequence (P49961 whole entry): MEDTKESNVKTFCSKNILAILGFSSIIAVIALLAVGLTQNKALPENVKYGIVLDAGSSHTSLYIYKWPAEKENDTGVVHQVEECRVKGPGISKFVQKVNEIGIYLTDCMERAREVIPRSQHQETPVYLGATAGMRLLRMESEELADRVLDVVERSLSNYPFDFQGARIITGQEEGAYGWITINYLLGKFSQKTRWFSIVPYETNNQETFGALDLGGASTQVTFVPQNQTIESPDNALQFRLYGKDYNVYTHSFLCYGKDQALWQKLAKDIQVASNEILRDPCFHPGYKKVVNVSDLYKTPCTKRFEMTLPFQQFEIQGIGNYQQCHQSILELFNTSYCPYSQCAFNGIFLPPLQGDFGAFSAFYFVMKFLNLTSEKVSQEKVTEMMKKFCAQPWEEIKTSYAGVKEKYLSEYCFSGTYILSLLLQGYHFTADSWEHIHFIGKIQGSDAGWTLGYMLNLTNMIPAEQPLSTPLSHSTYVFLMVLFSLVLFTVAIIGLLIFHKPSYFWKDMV
pIC50: −log10 of the molar value.
Form field: pIC50 (one value per entry).

C[C@H](Nc1cc(Cl)nc2c1cnn2[C@@H]1O[C@H](COP(=O)(O)CP(=O)(O)O)[C@@H](O)[C@H]1O)c1ccc(F)cc1 = < 5.00
C[C@H](Nc1cc(Cl)nc2c1cnn2[C@@H]1O[C@H](COP(=O)(O)CP(=O)(O)O)[C@@H](O)[C@H]1O)c1ccccc1F = < 5.00

Exercise: # input compound: C[C@H](Nc1nc(Cl)nc2c1cnn2[C@@H]1O[C@H](COP(=O)(O)CP(=O)(O)O)[C@@H](O)[C@H]1O)c1ccccc1 ; wanted: its pIC50
Key: < 5.00
